# System: NCI-H522 lung
# experiment summary: NCI tumour cell line growth inhibition, 48 h; in the data active means GI50 below about 0.43 µM; inactive means the rest
Classes used: active, inactive

>>> df
                                   compound  label_class
0  COc1cc([C@@H]2c3cc4c(cc3C(Br)[C@H]3COC(=O)[C@H]23)OCO4)cc(OC)c1OC (some centres not stated)       active
1  N#Cc1cccc(C(=O)c2cnn(-c3ccc(F)cc3)c2N)c1     inactive
2  O=S1(=O)N(Cc2ccccc2)[C@@H](Cc2ccccc2)C2O[C@H]2[C@H](Cc2ccccc2)N1Cc1ccccc1 (some centres not stated)     inactive
3  Fc1ccc(C2CC(c3cccc(Nc4ccncc4)c3)=NN2c2cc(Cl)cc(Cl)c2)cc1 (configuration not stated)     inactive
4  Cn1c(=O)c(Oc2cccc(F)c2)cc2cnc(NC3CCOCC3)nc21     inactive
5  Nc1c(C(=O)c2cccc(-c3ccc[n+]([O-])c3)c2)cnn1-c1ccc(F)cc1F     inactive
6  CC(=N\O)/C(C)=N/O.CC(=N\O)/C(C)=N/O.CC(=N\O)/C(C)=N/O.CC(=N\O)/C(C)=N/O.[Cu].[Cu]     inactive

###

# Test system: M14 melanoma
# experiment summary: NCI tumour cell line growth inhibition, 48 h
Some molecules, each annotated with its measured TGI.
experimental readout: TGI

>>> print(df.to_string())
                                   molecule  test_result
0  O=C1CCC2(CC1CCSc1ccccc1)OCCO2 (stereo unspecified)     > 100 µM
1         COc1ccccc1NC(=S)N/N=C(/C)c1ccccn1      2.54 µM
2  COc1ccc(Nc2ccnc(NCCNc3ccnc4cc(Cl)ccc34)n2)cc1      3.41 µM
3             Nc1ccc(-c2nc3cc(F)ccc3s2)cc1I     > 100 µM
4  O=C(NNc1cn[nH]c(=O)c1Cl)/C(=C/c1ccc2c(c1)OCO2)NC(=O)c1ccccc1     > 100 µM
5  COC(=O)Nc1nc2ccc(Oc3ccc(NC(=O)Nc4cccc(Br)c4)cc3)cc2[nH]1    > 17.8 µM

###

# System: OVCAR-5 ovarian
# experiment summary: NCI tumour cell line growth inhibition, 48 h

chemical string	system under test	TGI
CCc1nn(S(=O)(=O)c2ccc(C)cc2)c2c1CS(=O)(=O)CC2	OVCAR-5 ovarian	> 100 µM
C1#Cc2ccccc2OCCOc2ccccc2C#Cc2ccccc2OCCOc2ccccc21	OVCAR-5 ovarian	65.2 µM
c1cc(C[S+]2CCCC2)ccc1C[S+]1CCCC1	OVCAR-5 ovarian	> 100 µM
COc1cc2c(cc1OCCCOC1=C=C=C(c3ccc4c(c3)c3cc(-c5ccc(OCCCOc6cc7c(cc6OC)C(=O)N6CCC[C@H]6C=N7)cc5)ccc3n4S(=O)(=O)c3ccc(C)cc3)C=C1)N=C[C@@H]1CCCN1C2=O	OVCAR-5 ovarian	17.8 µM
Nc1ccc(N=Nc2ccccc2)c(N)n1	OVCAR-5 ovarian	> 100 µM
OCCCCC#Cc1ccccc1C#Cc1ccccc1F	OVCAR-5 ovarian	33.3 µM
N#Cc1cccc(C(=O)c2cnn(-c3ccc(F)cc3)c2N)c1	OVCAR-5 ovarian	> 25 µM
CS(=O)(=O)N(CCC#N)c1ccc(/C=N/NC(=O)CC(=O)Nc2cccc(Cl)c2)cc1	OVCAR-5 ovarian	> 100 µM
Cc1ccc(NC(=S)Nc2c(C)n(C)n(-c3ccccc3)c2=O)cc1	OVCAR-5 ovarian	> 100 µM
COc1cc(/C=C2\N=C(c3ccccc3)N(/N=C3\C(=O)Nc4ccccc43)C2=O)cc(OC)c1OC	OVCAR-5 ovarian	> 100 µM

###

# Test system: SK-MEL-5 melanoma
# experiment summary: NCI tumour cell line growth inhibition, 48 h
Some molecules, each annotated with its measured TGI.
experimental readout: TGI

>>> print(df.to_string())
                                   molecule  test_result
0          c1cc(C[S+]2CCCC2)ccc1C[S+]1CCCC1     > 100 µM
1  O=C(NC1(C(=O)NNc2nnc(-c3ccccc3)c(-c3ccccc3)n2)C(c2ccccc2)C(c2ccccc2)=NN1c1ccccc1)c1ccccc1 (centres undefined)     > 100 µM
2  COc1c(OC)c(O)c2c(=O)c(OC)c(-c3ccc4c(c3)OCO4)oc2c1O     > 100 µM
3  CCOC(=O)C1=C(C)C(C(=O)OC)/C(=C/c2cccc3cccnc23)C1=O (centres undefined)      > 10 µM
4  COc1ccc(C[C@H](N)C(=O)N2C[C@H](CO)C[C@H](n3ccc(=O)[nH]c3=O)C2)cc1     > 100 µM
5     O=c1[nH]c2cc3cccnc3c(Cl)c2nc1C(F)(F)F      29.8 µM
6  CN1C/C(=C\c2ccc(Cl)cc2)C(=O)/C(=C/c2ccc(Cl)cc2)C1    > 26.5 µM
7  CC(=O)NC1=C(C)C(=O)c2c(nc3n2CCC3O)C1=O (centres undefined)     > 100 µM
8  O=C1c2ccccc2C(=O)c2c1ccc1c2N=C(c2ccc(F)cc2)CC(c2ccc(Cl)c(Cl)c2)N1 (centres undefined)        31 µM

###

# Tested on: HOP-62 NSCLC
# experiment summary: NCI tumour cell line growth inhibition, 48 h
Some molecules, each annotated with its measured TGI.
experimental readout: TGI (µM)

>>> print(df.to_string())
                            chemical_string  op  test_result
0  CCOC(=O)CCc1c(C(=O)OCC)[nH]c(/C=C2\NC(=O)C(C)=C2CC)c1C   =         27.6
1        NC(N)=N/N=C/c1c(-c2cccs2)nc2sccn12   =         23.3
2      NCCNCCCCCCNC(=O)c1cccc2cc3ccccc3nc12   =         4.68
3  COc1ccc(C[C@H](N)C(=O)N2C[C@H](CO)C[C@H](n3cnc4c(N(C)C)ncnc43)C2)cc1   >          100
4  Nc1c(C(=O)c2cccc(-c3ccc[n+]([O-])c3)c2)cnn1-c1ccc(F)cc1F   >           25
5  N#Cc1cccc(C(=O)c2cnn(-c3ccc(F)cc3)c2N)c1   >           25

###

# Tested on: OVCAR-8 ovarian
# experiment summary: NCI tumour cell line growth inhibition, 48 h
experimental readout: TGI

>>> df
                                   molecule  system_under_test  test_result
0  Cc1[nH]c(C(=O)Nc2ccc(C(=O)N3CCNCC3)cc2OC(C)C)c(Cl)c1Cl    OVCAR-8 ovarian      5.32 µM
1  O=C(/C=C/c1ccc(-c2ccccc2)cc1)NCc1ccc(C(=O)NCCc2c[nH]c3ccccc23)cc1    OVCAR-8 ovarian     > 100 µM
2  CC1(C)CN(c2ccccc2)C(=O)C1OC(=O)[C@@]1(C)C[C@@H]2C=C[C@H]1C2 (stereo partly drawn)    OVCAR-8 ovarian     > 100 µM

###

# Tested on: KM12 colon
# experiment summary: NCI tumour cell line growth inhibition, 48 h
Some molecules, each annotated with its measured TGI.
experimental readout: TGI (µM)

In [3]: df
Out[3]:
                                   molecule  op  test_result
0  C=C1C(=O)O[C@H]2C/C(C)=C/CC/C(C)=C/CC[C@@](C)(O)[C@@H](I)C[C@@H]12   =         18.5
1  COc1ccc(C[C@H](N)C(=O)N2C[C@H](CO)C[C@H](n3cnc4c(N(C)C)ncnc43)C2)cc1   >          100
2               Cc1cc2ccccc2n1CC(=O)N1CCCC1   >          100
3  OCC(Cn1cncn1)(c1ccc(F)cc1F)n1cncn1 (centres undefined)   >          100
4  C[C@H](CC[C@@H](O)C(C)(C)O)[C@H]1CC[C@@]2(C)[C@@H]3CC=C4[C@@H](CC[C@H](O)C4(C)C)[C@]3(C)C(=O)C[C@]12C   =         49.2
5  C=C1C(=O)O[C@H]2[C@H]1CC/C(CNS(=O)(=O)c1ccc3ccccc3c1)=C\CC[C@@]1(C)O[C@@H]21   =         23.8
6  O=c1[nH]c(=O)n(COCc2ccccc2)c2ccc(Br)cc12   >          100
7   CN(C)c1ccc(C(=O)c2ccc(N(C)C)c(N)c2)cc1N   =         43.4
8  Nc1c(C(=O)c2cccc(-c3ccc[n+]([O-])c3)c2)cnn1-c1ccc(F)cc1F   >           25

###

Some compounds, each annotated with its measured TGI.
# Tested on: 786-0 renal
# experiment summary: NCI tumour cell line growth inhibition, 48 h
Where a SMILES comes first, the peptide text is derived from it. [ ]: non-standard residue; d: D form. The star is where a group is joined. ξ: configuration not given here. ξD = NC(CC(=O)O)C(=O)O; Ac3c = NC1(C(=O)O)CC1; Boc = CC(C)(C)OC(=O)*; OBn = c1ccc(CO*)cc1
experimental readout: TGI

>>> print(df.to_string())
                                    compound  system_under_test  test_result
 0  O=C1CCC2CCc3cccc4oc1c2c34 (stereo not given)        786-0 renal     > 100 µM
 1          Cc1cc(=O)n2nc(CSc3nnc(N)s3)sc2n1        786-0 renal     > 100 µM
 2  COC(=O)C1(NC(=O)C(CC(=O)OCc2ccccc2)NC(=O)OC(C)(C)C)CC1 (stereo not given) (Boc-[ξD](OBn)-[Ac3c]-OMe)        786-0 renal     > 100 µM
 3  N=S(=O)(c1ccccc1)c1ccccc1[N+](=O)[O-] (stereo not given)        786-0 renal     > 100 µM
 4  C=CCN(c1cc(OCc2ccccc2)c(NC(C)=O)cc1[N+](=O)[O-])S(C)(=O)=O        786-0 renal      49.2 µM
 5  Cc1ccc(C(=O)O/N=C2/CCCCC2CN(C)C)cc1 (stereo not given)        786-0 renal     > 100 µM
 6  CCOCC(=O)N[C@H]1CCc2cc(OC)c(OC)c(OC)c2-c2ccc(SC)c(=O)cc21        786-0 renal      > 88 µM
 7         N#Cc1c(N2CCCC2)ncn(Cc2ccccc2)c1=S        786-0 renal     > 100 µM
 8  COc1cc(N=Nc2ccccc2)cc(/C=N\[N-]C(N)=S)c1[O-].COc1cc(N=Nc2ccccc2)cc(/C=N\[N-]C(N)=S)c1[O-].[Fe+4]        786-0 renal     > 100 µM
 9  Nc1c(C(=O)c2cccc(-c3ccc[n+]([O-])c3)c2)cnn1-c1ccc(F)cc1F        786-0 renal      > 25 µM
10  CC(NC1=NCCO1)c1cccc([N+](=O)[O-])c1 (stereo not given)        786-0 renal     > 100 µM
11  C=C1C(=O)O[C@H]2C/C(C)=C/CC/C(C)=C/CC[C@@](C)(O)[C@@H](I)C[C@@H]12        786-0 renal      10.6 µM
12  N#CCCN(CCC#N)c1ccc(/C=C2\N=C(COc3ccc(Cl)cc3Cl)OC2=O)cc1        786-0 renal     > 100 µM
13  CC(=O)NC1=C(C)C(=O)c2c(nc3n2CCC3O)C1=O (stereo not given)        786-0 renal     > 100 µM
14  O=Nc1c(-c2cccc([N+](=O)[O-])c2)nc2cnccn12        786-0 renal      37.4 µM
15  CCCCCCCCCCCCCCCC(=O)OCC1OC(n2cnc3c(=S)nc(N)[nH]c32)C(OC(=O)CCCCCCCCCCCCCCC)C1OC(=O)CCCCCCCCCCCCCCC (stereo not given)        786-0 renal      > 50 µM
16      O=C(CN1CCCCC1)c1ccc2c(c1)Sc1ccccc1O2        786-0 renal      33.2 µM
17  O=S1(=O)N(Cc2ccccc2)[C@@H](Cc2ccccc2)C2O[C@H]2[C@H](Cc2ccccc2)N1Cc1ccccc1 (stereo not given in full)        786-0 renal     > 7.5 µM
18  Nc1nc2c(c3ncccc13)C(c1ccc(Cl)c(Cl)c1)Cc1ncccc1-2 (stereo not given)        786-0 renal      13.4 µM
19  CCOP(=O)(OCC)/C(=C\N1C(=O)CC(=O)NC1=S)C(=O)OC        786-0 renal     > 100 µM
